Target: Ebola virus nucleoprotein, recombinant construct consisting of the C-terminal portion of NP (Ebola virus (EBOV; formerly the Zaire ebolavirus))
Sequence (P18272 641-739 limits assumed): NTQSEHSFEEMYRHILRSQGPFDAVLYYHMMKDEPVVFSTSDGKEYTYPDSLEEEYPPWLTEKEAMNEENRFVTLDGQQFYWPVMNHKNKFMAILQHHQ
Test: SPR; ProteOn XPR36; […] (10 mM acetate pH 5.0); […]; Langmuir model
pKd: −log10 of the molar value.
Given measured pKd, output true (1) if it is greater than or equal to 9 and false (0) if not.

{"BINDER": "DSTL096 (VHH) VHH: RVDQTPRSVTKETGESLTINCVLRDASYAVGSTCWYRKKSGSTNEESISKGGRYVETVNSGSKSFSLRINDLTVEDGGTYRCGVSTYNWCGVRGLGCVHGACGDGTAVTVN", "CLASS_ASSIGNMENT": "true (1)"}
{"BINDER": "EK to WI (VHH) VHH: TRVDQTPRTATKETGESLTINCVLRDASYAVGSTCWFRKNPGTTDWESISIGGRYVESVNKGAKSFSLRIKDLTVADSATYYCGVSTYNWCGVRGLGCVHGACGDGTALTVK", "CLASS_ASSIGNMENT": "false (0)"}
{"BINDER": "SP15-096-13 (VHH) VHH: TRVDQTPRTATKETGESLTINCVLRDASYAVGSTCWFRKNPGTTDWERISIGGRYVESVNKGAKSFSLRIKDLTVADSATYYCGVSTYNWCGVRGLGCVHGACGDGTALTVK", "CLASS_ASSIGNMENT": "false (0)"}
{"BINDER": "SK to RI (VHH) VHH: TRVDQTPRTATKETGESLTINCVLRDASYAVGSTCWFRKNPGTTDEERISIGGRYVESVNKGAKSFSLRIKDLTVADSATYYCGVSTYNWCGVRGLGCVHGACGDGTALTVK", "CLASS_ASSIGNMENT": "false (0)"}
{"BINDER": "S to R (VHH) VHH: TRVDQTPRTATKETGESLTINCVLRDASYAVGSTCWFRKNPGTTDEERISKGGRYVESVNKGAKSFSLRIKDLTVADSATYYCGVSTYNWCGVRGLGCVHGACGDGTALTVK", "CLASS_ASSIGNMENT": "false (0)"}
{"BINDER": "E to W (VHH) VHH: TRVDQTPRTATKETGESLTINCVLRDASYAVGSTCWFRKNPGTTDWESISKGGRYVESVNKGAKSFSLRIKDLTVADSATYYCGVSTYNWCGVRGLGCVHGACGDGTALTVK", "CLASS_ASSIGNMENT": "true (1)"}
{"BINDER": "ES to WR (VHH) VHH: TRVDQTPRTATKETGESLTINCVLRDASYAVGSTCWFRKNPGTTDWERISKGGRYVESVNKGAKSFSLRIKDLTVADSATYYCGVSTYNWCGVRGLGCVHGACGDGTALTVK", "CLASS_ASSIGNMENT": "false (0)"}
{"BINDER": "SP15-096-123 (VHH) VHH: TRVDQTPRTATKETGESLTINCVLRDASYAVGSTCWFRKNPGTTDEESISKGGRYVESVNKGAKSFSLRIKDLTVADSATYYCGVSTYNWCGVRGLGCVHGACGDGTALTVK", "CLASS_ASSIGNMENT": "true (1)"}
{"BINDER": "K to I (VHH) VHH: TRVDQTPRTATKETGESLTINCVLRDASYAVGSTCWFRKNPGTTDEESISIGGRYVESVNKGAKSFSLRIKDLTVADSATYYCGVSTYNWCGVRGLGCVHGACGDGTALTVK", "CLASS_ASSIGNMENT": "false (0)"}
